Measured quantity: melting point

In the examples that follow, each entry is paired with its recorded melting point.
CCCCc1sc2ccccc2c1-c1ccc(-c2ccc(OC(C(=O)O)c3ccccc3)cc2)cc1 (stereo not given); 157 to 159 °C
CC(=O)Nc1cc([C@H](O)CN[C@H](C)Cc2ccc(O)cc2)ccc1O; 97 to 100 °C
Nc1cccc(Cn2c(-c3ccc(-c4cccnc4)cc3)ccc2-c2ccccc2Cl)n1; 139 to 145 °C
COc1c(C(=S)NCCNC2CCCCCC2)cc(C)c2ccccc12; 140 to 141 °C

Here's the next entry for you.
Determine its reported melting point: `Cc1cc(F)ccc1-c1cnccn1`
66 to 68 °C

----------
Measured quantity: melting point

In the examples that follow, each entry is paired with its recorded melting point.
O=C(O)C(Cl)CCCCCCCCCCCCC(Cl)C(=O)O (stereo not given); 71 to 72 °C
Clc1ccc(Nc2nc3ccccc3c3c2ncn3-c2ccco2)cc1Cl; 135 to 138 °C
Cn1ncnc1COc1nn2c(-c3cnccn3)nnc2cc1-c1ccccc1; 264 °C
Cc1c(Cc2ccc(Cl)cc2)cccc1[N+](=O)[O-]; 84 to 85 °C

Here's the next entry for you.
Determine its reported melting point: CC(=O)OC1C(OC2=NN(Cc3ccccc3)C(=O)C3CC23)c2cc(C#N)ccc2OC1(C)C (stereo not given)
149 to 151 °C

----------
Measured quantity: melting point

NC(=O)[C@H](O)[C@@H](O)CO; 105 to 107 °C

Determine its reported melting point: `C=CCNC(=O)[C@H]1CN(c2ccc(N3CCOCC3)c(F)c2)C(=O)O1`
167 to 169 °C

Determine its reported melting point: CC1(c2ccc(Cl)c(Cl)c2)CN(C(=O)c2ccc(F)c3ccccc23)CCN1C(=O)CNC1CCN(Cc2ccccc2)CC1 (racemic)
93 to 96 °C

Determine its reported melting point: O=C1C(CCO)Oc2ccccc2N1Cc1ccc2ccccc2c1 (configuration not stated)
81 to 87 °C

Determine its reported melting point: `CCOC(=O)C(C#N)=C(SC)N1CCc2ccccc2CC1`
88 to 93 °C

Determine its reported melting point: `Oc1cc(O)c2c(-c3cc(F)cc(F)c3)c(Br)oc2c1`
121 to 122 °C

Determine its reported melting point: `CCOCCOc1ccc(CCNC(=O)c2cnc3ccccc3c2)cc1S(=O)(=O)NC(=S)NC`
88 to 91 °C

Determine its reported melting point: `CC(=O)c1cn(Cc2ccccc2)c(=O)n(Cc2ccc(F)cc2)c1=O`
106 to 108 °C

Determine its reported melting point: `C=CCc1c2c(cc(OCc3ccccc3)c1C(C)(C)C)CC(C)(C)O2`
73 to 74 °C

----------
Measured quantity: melting point

In the examples that follow, each entry is paired with its recorded melting point.
Cc1nc(C)c(CSC(=O)c2ccccc2)c(O)c1O; 174 to 177 °C
Cn1ncnc1COc1nc2c(-c3c(F)cccc3F)nncn2c1-c1ccccc1; 190 °C
CC/C=C/Cn1c(Sc2cc(C)cc(C)c2)c(CC)c(=O)[nH]c1=O; 129 to 130 °C

Determine its reported melting point: `CCC=Cc1c(C(C)C)nc(C(C)C)c(CO)c1-c1ccc(F)cc1`
115 to 117 °C

Determine its reported melting point: `O=C1c2ccccc2-c2c1c1ccccc1c(=O)n2CCNS(=O)(=O)c1ccc(Br)cc1`
260 to 263 °C

Determine its reported melting point: `OCCNC(c1ccccc1)c1ccccc1`
69 to 70 °C

Determine its reported melting point: CC(CCC(=O)NO)NC(=O)C(=O)c1cn2c3c(cccc13)CCC2 (stereo not given)
135 to 137 °C

Determine its reported melting point: `O=C1OC(=Cc2ccccc2)c2ccc(-c3ccccc3)cc21`
187 °C

Determine its reported melting point: `O=[N+]([O-])c1ccc(-c2ccc(Cl)cc2)cc1`
142 to 145 °C

Determine its reported melting point: `CC(C)c1c(C(=O)c2ccccc2)n(COCc2ccccc2)c(=O)[nH]c1=O`
184 °C
